List of survival values.
# Tested on: Wild type
# EXPERIMENT DESCRIPTION: S. aureus survival, RN4220 and DeltatarO strains – OD600, teichoic acid synthesis inhibitors, primary screen (AID 463173)
# STATED CONDITIONS: S. aureus RN4220 wild type/DeltatarO growth, OD600, 18 h, hits give low values, screened at 18.75 µg/mL (by protocol)
The campaign covered roughly 52,000 compounds. About 1,700 (3.3%) were called active. This is one part of a sample in which actives are shown more often than they occur.
Report only the number, with the unit % understood.

COMPOUND: COc1ccc(OCc2nc3ccccc3n2C(C)c2ccccc2)cc1 (stereo unspecified)
QUANTITY MEASURED: survival
UNIT ABBREV: %
REPORTED: -2

Note: attention shifts to another entry.
Fill in: survival of CC(C)OCCCNC(=O)C(=O)Nc1ccc2nc3n(c(=O)c2c1)CCCCC3 is ___
99

----------
# Test system: Wild type
# EXPERIMENT DESCRIPTION: S. aureus survival, RN4220 and DeltatarO strains – OD600, teichoic acid synthesis inhibitors, primary screen (AID 463173)
# STATED CONDITIONS: S. aureus RN4220 wild type/DeltatarO growth, OD600, 18 h, screened at 18.75 µg/mL (by protocol)
About 1,700 (3.3%) of roughly 52,000 compounds were called active. Rule as the data show it: active = survival mostly below about 52% (no sharp cut-off); inactive = mostly above about 56%. The full list was thinned out, with actives kept by preference.
Respond only with the outcome that fits, drawn from active, inactive

COMPOUND: Cc1ccc(-c2nn(-c3ccccc3)c3c2cnc2ccccc23)cc1C
LABEL: inactive

Each compound tested received a call. Report the one for COCCCNC(=O)c1ccc2c(c1)nc(C)n2-c1cccc(C)c1 .
inactive

Assay result, entry CCCn1c(N2CCN(CC(=O)Nc3ccc(Cl)cc3)CC2)nc2ccccc21 — outcome?
inactive

Any idea what this test logged for Cc1cccc(-n2cnc3cc(C(=O)NCc4ccccc4Cl)ccc32)c1 ?
inactive

Give the logged outcome of this assay for the following compound: Cc1ccc(C)c(N(CC(=O)Nc2ccccc2)S(C)(=O)=O)c1
inactive

# lookup: test call for O=C(CCn1ccc2cc(S(=O)(=O)N3CCCC3)ccc21)NCc1cccc(Cl)c1
active

----------
# Test system: Wild type
# EXPERIMENT DESCRIPTION: S. aureus survival, RN4220 and DeltatarO strains – OD600, teichoic acid synthesis inhibitors, primary screen (AID 463173)
# STATED CONDITIONS: S. aureus RN4220 wild type/DeltatarO growth, OD600, 18 h, hits give low values, screened at 18.75 µg/mL (by protocol)
The campaign covered roughly 52,000 compounds. About 1,700 (3.3%) were called active. For the sample, actives were picked, then their nearest neighbours and some compounds at random.
QUANTITY MEASURED: survival (%)
Numeric answer only, unit % assumed.

Please review the entries below; each comes with its answer.
RECORD SMILES: CSc1ccc(CCNC(=O)CCc2c(C)nc3ncnn3c2C)cc1
ASSAY SYSTEM: Wild type
survival [%]: 71
//
RECORD SMILES: COc1cccc(CN2C(=O)c3ccccc3Sc3ccc(C(=O)OCc4ccco4)cc32)c1
ASSAY SYSTEM: Wild type
survival [%]: 72
//
RECORD SMILES: Cc1ccc(C(=O)NCCc2csc(-c3cccc(F)c3)n2)cc1C
ASSAY SYSTEM: Wild type
survival [%]: 78
//
RECORD SMILES: COC(=O)c1ccc(NC(=O)CSc2cn(CC(=O)N3CCCCC3)c3ccccc23)cc1
ASSAY SYSTEM: Wild type
survival [%]: 89

Continue with the next compound.
Looking for the measured survival of NC(=O)CSc1nnc(CNc2ccc(Cl)cc2)n1Cc1ccccc1 , can you help?
125

----------
# System: Wild type
# EXPERIMENT DESCRIPTION: S. aureus survival, RN4220 and DeltatarO strains – OD600, teichoic acid synthesis inhibitors, primary screen (AID 463173)
# STATED CONDITIONS: S. aureus RN4220 wild type/DeltatarO growth, OD600, 18 h, hits give low values, screened at 18.75 µg/mL (by protocol)
Among all 52,000 compounds or so, about 1,700 (3.3%) were called active. This is one part of a sample in which actives are shown more often than they occur.
survival by entry:
The figure you give is taken to be in %; do not add the unit.

MOLECULE: Cc1cc(=O)n(Cc2ccc(Cl)cc2)c2c1c(C)nn2-c1ccccc1
UNIT ABBREV: %
survival: 131

MOLECULE: CC(O)c1nc2ccccc2n1Cc1ccccc1 (configuration not stated)
UNIT ABBREV: %
survival: 100

MOLECULE: Cc1cc(=O)n(Cc2cccc(Cl)c2)c2c1c(C)nn2C
UNIT ABBREV: %
survival: 66

MOLECULE: CN(Cc1ccccc1)C(=O)COc1ccc(S(=O)(=O)N2CCCC2)cc1
UNIT ABBREV: %
survival: 121

MOLECULE: CC(C)COc1ccc(Nc2ncnc3ccc(Br)cc23)cc1
UNIT ABBREV: %
survival: 79

MOLECULE: NC(=O)CSc1nnc(C2CC2)n1Cc1ccccc1
UNIT ABBREV: %
survival: 93

MOLECULE: CSc1ccc(CCNC(=O)c2ccc3c(c2)c(C)c(C)n3Cc2ccc(F)cc2)cc1
UNIT ABBREV: %
survival: 70

MOLECULE: COc1ccc(COC(=O)c2[nH]c3c(c2C)C(=O)CC(c2ccc(OC)c(OC)c2)C3)cc1 (configuration not stated)
UNIT ABBREV: %
survival: 92

In the following, a different molecule is considered.
What does the data say about its survival? Entry: O=C(NC1CCCCC1)c1ccco1
102

----------
# Tested on: Wild type
# EXPERIMENT DESCRIPTION: S. aureus survival, RN4220 and DeltatarO strains – OD600, teichoic acid synthesis inhibitors, primary screen (AID 463173)
# STATED CONDITIONS: S. aureus RN4220 wild type/DeltatarO growth, OD600, 18 h, hits give low values, screened at 18.75 µg/mL (by protocol)
Screen size: about 52,000 compounds; about 1,700 (3.3%) were called active. This excerpt belongs to a sample that is enriched for actives.
Returns: string. Value is 1.0 if measured survival is below 80%, and 0.0 if it is greater than or equal to it.

A selection of reference data follows.
COMPOUND: COc1ccc(O)c(-c2cn[nH]c2-c2cccs2)c1
LABEL: 0.0
//
COMPOUND: COc1ccc(NC(=O)c2oc3ccc(S(=O)(=O)N4CCOCC4)cc3c2C)c(OC)c1
LABEL: 0.0
//
COMPOUND: Oc1ccccc1-c1nc(-c2cccs2)c(-c2cccs2)[nH]1
LABEL: 1.0
//
COMPOUND: Cn1c(SCCC(=O)O)nnc1-c1ccncc1
LABEL: 0.0
//
COMPOUND: Cc1ccccc1OCC(=O)NCCN1CCCC1
LABEL: 0.0
//
COMPOUND: COc1ccc(C(=O)Nc2ccccc2C(=O)OCc2cc(=O)n3nc(C4CC4)sc3n2)cc1
LABEL: 1.0

Could you please tell me whether survival recorded for O=c1c(=O)n(-c2ccccc2)ccn1Cc1cccc(C(F)(F)F)c1 is less than 80%?
0.0

Is 80% strictly greater than the compound's reported survival? compound: O=C(CSCc1cnn(-c2ccccc2)c1-n1cccc1)NCc1cccc(Cl)c1
0.0

Given the entry COc1ccc(CNc2nc(-c3ccc(Cl)cc3)nn2S(=O)(=O)c2ccc(C)cc2)cc1 , would its reported survival be below 80%?
1.0

Item CCc1ccc(CNC(=O)C2COc3ccc(OC)cc3C2)cc1 (configuration not stated) : survival beneath 80%, strictly?
0.0

Take the compound CC(=O)c1ccc(N2CCN(C(=O)CCCn3c(=O)[nH]c4ccsc4c3=O)CC2)cc1 and say whether its survival is less than 80%.
1.0

Consider the compound CN(C)c1oc(/C=C/c2ccc(F)cc2)nc1C#N . Is its survival strictly less than 80%?
0.0

----------
# Tested on: Wild type
# EXPERIMENT DESCRIPTION: S. aureus survival, RN4220 and DeltatarO strains – OD600, teichoic acid synthesis inhibitors, primary screen (AID 463173)
# STATED CONDITIONS: S. aureus RN4220 wild type/DeltatarO growth, OD600, 18 h, hits give low values, screened at 18.75 µg/mL (by protocol)
Among all 52,000 compounds or so, about 1,700 (3.3%) were called active. The entries come from a sample that favours actives as a whole.
QUANTITY MEASURED: survival (%)
# value in %; strip the unit string

RECORD SMILES: CCOc1ccc(S(=O)(=O)Nc2cccc(-c3ccc(OCC)nn3)c2)cc1
survival [%]: 71

I have this molecule here, Cc1cc2nc(N(Cc3cccnc3)C(=O)c3ccc(Cl)s3)sc2cc1C , and I need its recorded survival.
0

survival lookup needed for COc1ccc2sc(N(Cc3cccnc3)C(=O)c3ccco3)nc2c1 , thanks.
-4

What survival value was documented for this molecule, COc1ccc2c(c1)cc1c(=O)n(CC(=O)NCCc3ccccc3)nc(C)n12 ?
81
